target: KDR (h) (Homo sapiens); assay: KDR (VEGFR2) (enzymatic assay), TR-FRET; assay type: biochemical; settings: average values if tested multiple times, read-out: VEGFR 2 (KDR) pIC50 (converted)
Sequence (P35968 20-1356): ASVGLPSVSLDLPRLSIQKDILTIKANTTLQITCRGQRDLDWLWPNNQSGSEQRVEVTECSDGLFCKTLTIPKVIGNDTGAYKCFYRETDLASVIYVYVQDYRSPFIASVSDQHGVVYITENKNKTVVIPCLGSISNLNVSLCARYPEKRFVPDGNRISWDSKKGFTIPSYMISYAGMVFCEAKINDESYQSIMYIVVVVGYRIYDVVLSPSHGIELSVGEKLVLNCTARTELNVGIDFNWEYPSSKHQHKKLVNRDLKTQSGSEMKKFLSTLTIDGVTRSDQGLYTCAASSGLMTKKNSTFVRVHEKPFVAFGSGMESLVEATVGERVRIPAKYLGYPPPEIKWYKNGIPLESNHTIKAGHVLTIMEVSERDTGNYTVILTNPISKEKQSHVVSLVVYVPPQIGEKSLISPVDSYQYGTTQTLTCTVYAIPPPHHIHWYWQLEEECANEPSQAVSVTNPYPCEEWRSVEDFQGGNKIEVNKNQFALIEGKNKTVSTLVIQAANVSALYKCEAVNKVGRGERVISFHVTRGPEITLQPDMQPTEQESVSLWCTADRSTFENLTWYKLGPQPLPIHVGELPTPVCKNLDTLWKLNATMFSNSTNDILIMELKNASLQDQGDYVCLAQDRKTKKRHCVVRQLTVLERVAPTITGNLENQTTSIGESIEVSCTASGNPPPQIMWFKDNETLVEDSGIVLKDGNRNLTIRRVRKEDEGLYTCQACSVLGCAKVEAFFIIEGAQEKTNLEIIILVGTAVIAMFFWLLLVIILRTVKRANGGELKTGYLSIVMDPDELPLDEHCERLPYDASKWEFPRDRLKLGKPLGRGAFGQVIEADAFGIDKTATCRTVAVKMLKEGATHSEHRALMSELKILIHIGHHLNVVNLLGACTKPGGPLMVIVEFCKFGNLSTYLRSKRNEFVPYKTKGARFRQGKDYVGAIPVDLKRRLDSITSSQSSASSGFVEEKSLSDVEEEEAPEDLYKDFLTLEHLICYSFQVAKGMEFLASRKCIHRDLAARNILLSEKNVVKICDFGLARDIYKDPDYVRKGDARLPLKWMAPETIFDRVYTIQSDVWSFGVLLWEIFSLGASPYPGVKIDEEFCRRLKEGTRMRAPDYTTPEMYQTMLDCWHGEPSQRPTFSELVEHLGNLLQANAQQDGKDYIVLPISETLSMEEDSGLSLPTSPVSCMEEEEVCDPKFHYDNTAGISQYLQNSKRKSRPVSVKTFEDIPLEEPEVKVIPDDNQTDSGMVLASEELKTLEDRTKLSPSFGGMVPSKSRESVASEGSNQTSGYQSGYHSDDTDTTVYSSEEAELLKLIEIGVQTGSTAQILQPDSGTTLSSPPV
Counter-ions that a name gives are not always drawn.
Reported Metric: IC50 (nM)
// return numeric value only (unit: nM, not printed)

COc1cc(OC)c(F)c(N(CC(O)COC(C)C)c2ccc3ncc(-c4cnn(C)c4)nc3n2)c1F (centres unmarked) [Compound 62]	32.4
COc1cc(OC)cc(N(Cc2ncc[nH]2)c2ccc3ncc(-c4cnn(C)c4)nc3n2)c1 [24-fumarate salt]	11.7
COc1cc(OC)cc(N(Cc2ncc[nH]2)c2ccc3ncc(-c4cnn(C)c4)nc3n2)c1 [24-sulphate salt]	13.2
COc1cc(OC)c(F)c(N(Cc2nc[nH]c2C)c2ccc3ncc(-c4cnn(C)c4)nc3n2)c1	20
COc1cc(OC)c(F)c(N(CC2CCC(=O)N2)c2ccc3ncc(-c4cnn(C)c4)nc3n2)c1 (centres unmarked) [Compound 46]	41.7

Value sought: IC50, system KDR (h) (Homo sapiens), item COc1cc(OC)c(F)c(N(Cc2nc3ccccc3[nH]2)c2ccc3ncc(-c4cnn(C)c4)nc3n2)c1 . Result: 10.2

Value sought: IC50, system KDR (h) (Homo sapiens), item COCC(O)CN(c1ccc2ncc(-c3cnn(C)c3)nc2n1)c1c(F)c(OC)cc(OC)c1F (centres unmarked) . Result: 21.9
